These entries and their values trace back to ChEMBL document CHEMBL5131543.

Assay: Lipophilicity, logD of compound at pH 1.3 by shake flask method based 31P-NMR analysis
Type: physicochemical
Conditions: buffer
observed property: logD
Reply with just the number.

For the molecule O=P(O)(O)C(O)(c1ccccc1F)P(=O)(O)O , what logD is on record?
-2.16

// query: CCCCCCC(O)(P(=O)(O)O)P(=O)(O)O
-0.08

What do we get for CC(C)OC(=O)OCOP(=O)(CO[C@H](C)Cn1cnc2c(N)ncnc21)OCOC(=O)OC(C)C ?
1.26

Try the molecule CCCCCCCCCC(O)(P(=O)(O)O)P(=O)(O)O
1.72

Do the same for O=P(O)(O)C(O)(c1ccc(F)cc1)P(=O)(O)O please
-1.57

// same read-out, input: C[C@@H]1C[C@H]2[C@@H]3CCC4=CC(=O)C=C[C@]4(C)[C@@]3(F)[C@@H](O)C[C@]2(C)[C@@]1(O)C(=O)COP(=O)(O)O [DEXAMETHASONE SODIUM PHOSPHATE]
1.24

Queued: CCCCCCCC(O)(P(=O)(O)O)P(=O)(O)O
0.6

# iterate: O=P(O)(O)C(O)(c1cc(F)c(F)c(F)c1)P(=O)(O)O
-0.69

* * *

Experiment: Lipophilicity, logD of compound at pH 3 by shake flask method based 31P-NMR analysis
Type: physicochemical
Conditions: buffer
observed property: logD
Field format: numeric only.

Which logD reading was recorded for the molecule O=P(O)(O)C(O)(c1ccccc1F)P(=O)(O)O ?
-3.25

* * *

Assay: Lipophilicity, logD of compound at pH 7.4 by shake flask method based 31P-NMR analysis
Assay type: physicochemical
Conditions: buffer
observed property: logD
Returns: the value as a bare number; no unit string appended.

Consider the molecule CC(C)OC(=O)OCOP(=O)(CO[C@H](C)Cn1cnc2c(N)ncnc21)OCOC(=O)OC(C)C [TENOFOVIR DISOPROXIL] and give its measured logD.
1.26

* * *

Recorded logP for the following compounds
Assay: […]-water partition coefficient, logP of compound by shake flask method based 31P-NMR analysis
Assay type: physicochemical
Settings: octanol/water
Keep the answer to the number alone.

A selection of reference data follows.
[
  {
    "compound": "CCNP(=O)(OCC)OCC",
    "endpoint result": 0.54
  },
  {
    "compound": "CCOP(=S)(OCC)Oc1ccccc1",
    "endpoint result": 3.34
  },
  {
    "compound": "CCOP(=S)(OCC)Oc1ccc([N+](=O)[O-])cc1 [PARATHION]",
    "endpoint result": 3.08
  },
  {
    "compound": "CP(C)(C)=S",
    "endpoint result": -0.23
  },
  {
    "compound": "CP(C)(C)=[Se]",
    "endpoint result": -0.02
  }
]

I am curious: what logP value has been reported for COP(=O)(OC)OC [TRIMETHYL PHOSPHATE] ?
-0.4

Query O=P(CCCO)(CCCO)CCCO next
-2.49

Repeat with CCOP(=S)(OCC)Oc1ccc(OC)cc1
3.37

Entry to check: CCOP(=O)(OCC)SCC
1.42

Also check CCOP(=O)(OCC)Oc1ccc([N+](=O)[O-])cc1 [PARAOXON]
2.11

Request: CP(C)(C)=O
-1.6

What about this compound? CCOP(=O)(OCC)Oc1ccc(OC)cc1
2.14

Item: OCCCP(=[Se])(CCCO)CCCO
-0.9

Entry to check: CCOP(=O)(OCC)Oc1ccccc1
2.07

Same question for OCCCP(=S)(CCCO)CCCO please.
-1.2

Another compound to look at: CCOP(=S)(OCC)SCC
3.38
